assay: MTT: Cell Damaging and Protecting Effect Test; assay type: cell-based, rabbit (male Japanese White); conditions: rabbit, gastric corpus mucosa cells, final concentration 10^-4 M, smaller value is better, read-out: MTT: cell damaging rate

MOLECULE: CC(C)N(CCNC(=O)c1ccc(NC(=O)C(C)(C)C)cc1)C(C)C [Example 69]
VALUE UNITS: %
cytotoxicity at 4 h, 100 µM: 35
//
MOLECULE: CCN(CC)CCNC(=O)c1ccc(OC)cc1OC/C=C(\C)CCC=C(C)C [Example 32]
VALUE UNITS: %
cytotoxicity at 4 h, 100 µM: 28
//
MOLECULE: COc1cc(C(=O)NCCN(C)C)cc(OC)c1OC/C=C(\C)CCC=C(C)C [Example 43]
VALUE UNITS: %
cytotoxicity at 4 h, 100 µM: 1
//
MOLECULE: CCN(CC=C(C)C)c1ccc(C(=O)NCCN(C(C)C)C(C)C)cc1 [Example 28]
VALUE UNITS: %
cytotoxicity at 4 h, 100 µM: 16
//
MOLECULE: CC(C)=CCC/C(C)=C/COc1ccc(OC/C=C(\C)CCC=C(C)C)c(C(=O)NCCN(C(C)C)C(C)C)c1 [Example 17]
VALUE UNITS: %
cytotoxicity at 4 h, 100 µM: 27
//
MOLECULE: CCN(CC)CCNC(=O)c1ccc(OC/C=C(\C)CCC=C(C)C)cc1OC/C=C(\C)CCC=C(C)C [Example 15]
VALUE UNITS: %
cytotoxicity at 4 h, 100 µM: 44
//
MOLECULE: CC(C)N(CCNC(=O)c1cc(C(C)(C)C)cc(C(C)(C)C)c1)C(C)C [Example 65]
VALUE UNITS: %
cytotoxicity at 4 h, 100 µM: 5
//
MOLECULE: CCN(CC)CCNC(=O)c1cc(OCC=C(C)C)cc(OCC=C(C)C)c1 [Example 14]
VALUE UNITS: %
cytotoxicity at 4 h, 100 µM: 43
//
MOLECULE: CC(C)=CCC/C(C)=C/CN(C/C=C(\C)CCC=C(C)C)c1ccc(C(=O)NCCN(C(C)C)C(C)C)cc1 [Example 27]
VALUE UNITS: %
cytotoxicity at 4 h, 100 µM: 39
//
MOLECULE: CCN(CC)CCNC(=O)c1cc(F)ccc1OC/C=C(\C)CCC=C(C)C [Example 35]
VALUE UNITS: %
cytotoxicity at 4 h, 100 µM: 25
//
MOLECULE: CCC(C)N(CCNC(=O)c1ccc(OC/C=C(\C)CCC=C(C)C)cc1)C(C)CC (stereo not drawn) [Example 8]
VALUE UNITS: %
cytotoxicity at 4 h, 100 µM: 38
//
MOLECULE: CCN(CC)CCNC(=O)c1ncccc1OCC=C(C)C [Example 54]
VALUE UNITS: %
cytotoxicity at 4 h, 100 µM: -10
//
MOLECULE: CCN(CC)CCNC(=O)c1ccc(OCC=C(C)C)nc1 [Example 46]
VALUE UNITS: %
cytotoxicity at 4 h, 100 µM: -3
//
MOLECULE: CC(C)=CCOc1cccnc1C(=O)NCCN(C(C)C)C(C)C [Example 55]
VALUE UNITS: %
cytotoxicity at 4 h, 100 µM: 20
//
MOLECULE: CCN(CC)CCNC(=O)c1cc(OC)ccc1OC/C=C(\C)CCC=C(C)C [Example 33]
VALUE UNITS: %
cytotoxicity at 4 h, 100 µM: 26
//
MOLECULE: CCN(CC)CCNC(=O)c1ccc(OCC=C(C)C)cc1OCC=C(C)C [Example 20]
VALUE UNITS: %
cytotoxicity at 4 h, 100 µM: 28
//
MOLECULE: CCN(CC)CCNC(=O)c1cc(OCC=C(C)C)ccc1OCC=C(C)C [Example 21]
VALUE UNITS: %
cytotoxicity at 4 h, 100 µM: 36
//
MOLECULE: CCN(CC)CCNC(=O)c1cc(OC/C=C(\C)CCC=C(C)C)ccc1OC/C=C(\C)CCC=C(C)C [Example 16]
VALUE UNITS: %
cytotoxicity at 4 h, 100 µM: 40
//
MOLECULE: CC(C)N(CCNC(=O)c1ccc(C(=O)NC(C)(C)C)cc1)C(C)C [Example 67]
VALUE UNITS: %
cytotoxicity at 4 h, 100 µM: -35
//
MOLECULE: CC(C)=CCC/C(C)=C/COc1ccccc1C(=O)NCCN(C)C [Example 13]
VALUE UNITS: %
cytotoxicity at 4 h, 100 µM: 19
//
MOLECULE: CCN(CC)CCNC(=O)c1cc(OC)c(OC/C=C(/C)CCC=C(C)C)c(OC)c1 [Example 38]
VALUE UNITS: %
cytotoxicity at 4 h, 100 µM: 30
//
MOLECULE: CCN(CC)CCNC(=O)c1ccc(OC/C=C(/C)CCC=C(C)C)cc1 [Example 5]
VALUE UNITS: %
cytotoxicity at 4 h, 100 µM: 30
//
MOLECULE: CCN(CC)CCNC(=O)c1ccccc1SC/C=C(\C)CCC=C(C)C [Example 25]
VALUE UNITS: %
cytotoxicity at 4 h, 100 µM: 19
//
MOLECULE: CCN(CC)CCNC(=O)c1cccc(OC)c1OC/C=C(\C)CCC=C(C)C [Example 31]
VALUE UNITS: %
cytotoxicity at 4 h, 100 µM: 17

Source listed as patent US6001880A.
